The following compounds are listed with their measured relative viability values.
- System: SK-LU-1
- methodSummary: relative viability (nuclei count vs DMSO), 5 days (fraction); higher = more cells survive
- details: first compound 0.02 µM
Respond numerically, and do not add a unit to the figure.

Example results:
compound	studyTarget	reportedResult
CC(=O)O[C@@]12CO[C@@H]1C[C@H](O)[C@@]1(C)C(=O)[C@H](O)C3=C(C)[C@@H](OC(=O)[C@H](O)[C@@H](NC(=O)OC(C)(C)C)c4ccccc4)C[C@@](O)([C@@H](OC(=O)c4ccccc4)[C@H]21)C3(C)C [Docetaxel] + C[C@]1(O)C[C@@H](c2nc(-c3ccc4ccc(-c5ccccc5)nc4c3)c3c(N)nccn32)C1 [Linsitinib] (partner 1 µM)	SK-LU-1	0.232
CC(=O)O[C@@]12CO[C@@H]1C[C@H](O)[C@@]1(C)C(=O)[C@H](O)C3=C(C)[C@@H](OC(=O)[C@H](O)[C@@H](NC(=O)OC(C)(C)C)c4ccccc4)C[C@@](O)([C@@H](OC(=O)c4ccccc4)[C@H]21)C3(C)C [Docetaxel] + O=C(CCCCCCC(=O)Nc1ccccc1)NO [Vorinostat] (partner 1 µM)	SK-LU-1	0.226

Proceeding to the next compound to report its relative viability.
Data request: Give the measured relative viability of CC(=O)O[C@@]12CO[C@@H]1C[C@H](O)[C@@]1(C)C(=O)[C@H](O)C3=C(C)[C@@H](OC(=O)[C@H](O)[C@@H](NC(=O)OC(C)(C)C)c4ccccc4)C[C@@](O)([C@@H](OC(=O)c4ccccc4)[C@H]21)C3(C)C [Docetaxel] + Cc1cc(Nc2cc(N3CCN(C)CC3)nc(Sc3ccc(NC(=O)C4CC4)cc3)n2)n[nH]1 [Tozasertib] (partner 0.1 µM) .
Data returned: 0.217

====

The following molecules are listed with their measured relative viability values.
- Test system: HARA
- methodSummary: relative viability (nuclei count vs DMSO), 5 days (fraction); higher = more cells survive
- details: first compound 2.53 µM
Respond numerically, and do not add a unit to the figure.

Example results:
molecule	relative viability
Cc1cnc(-c2cnc(NCCNc3ccc(C#N)cn3)nc2-c2ccc(Cl)cc2Cl)[nH]1 + Nc1nc2[nH]cc(CCc3ccc(C(=O)N[C@@H](CCC(=O)O)C(=O)O)cc3)c2c(=O)[nH]1 [Pemetrexed] (partner 0.2 µM)	0.235
O=c1[nH]c2ccccc2n1C1CCN(CCCC(c2ccc(F)cc2)c2ccc(F)cc2)CC1 [Pimozide] + CC(=O)c1c(C)c2cnc(Nc3ccc(N4CCNCC4)cn3)nc2n(C2CCCC2)c1=O [Palbociclib] (partner 0.5 µM)	0.255

Data request: Give the measured relative viability of O=c1[nH]c2ccccc2n1C1CCN(CCCC(c2ccc(F)cc2)c2ccc(F)cc2)CC1 [Pimozide] + C[C@]1(O)C[C@@H](c2nc(-c3ccc4ccc(-c5ccccc5)nc4c3)c3c(N)nccn32)C1 [Linsitinib] (partner 1 µM) .
Data returned: 0.92

Data request: Give the measured relative viability of O=c1[nH]c2ccccc2n1C1CCN(CCCC(c2ccc(F)cc2)c2ccc(F)cc2)CC1 [Pimozide] + Cc1nc(Nc2ncc(C(=O)Nc3c(C)cccc3Cl)s2)cc(N2CCN(CCO)CC2)n1 [Dasatinib] (partner 0.075 µM) .
Data returned: 0.247

Data request: Give the measured relative viability of O=c1[nH]c2ccccc2n1C1CCN(CCCC(c2ccc(F)cc2)c2ccc(F)cc2)CC1 [Pimozide] + CS(=O)(=O)CCNCc1ccc(-c2ccc3ncnc(Nc4ccc(OCc5cccc(F)c5)c(Cl)c4)c3c2)o1 [Lapatinib] (partner 2 µM) .
Data returned: 0.776

Data request: Give the measured relative viability of O=c1[nH]c2ccccc2n1C1CCN(CCCC(c2ccc(F)cc2)c2ccc(F)cc2)CC1 [Pimozide] + COc1cc2c(Oc3ccc(NC(=O)C4(C(=O)Nc5ccc(F)cc5)CC4)cc3F)ccnc2cc1OCCCN1CCOCC1 [Foretinib] (partner 0.25 µM) .
Data returned: 0.733

Data request: Give the measured relative viability of Cc1cnc(-c2cnc(NCCNc3ccc(C#N)cn3)nc2-c2ccc(Cl)cc2Cl)[nH]1 + Cc1cc(Nc2cc(N3CCN(C)CC3)nc(Sc3ccc(NC(=O)C4CC4)cc3)n2)n[nH]1 [Tozasertib] (partner 0.1 µM) .
Data returned: 0.1

Data request: Give the measured relative viability of O=c1[nH]c2ccccc2n1C1CCN(CCCC(c2ccc(F)cc2)c2ccc(F)cc2)CC1 [Pimozide] + CCNC(=O)c1noc(-c2cc(C(C)C)c(O)cc2O)c1-c1ccc(CN2CCOCC2)cc1 [Luminespib] (partner 0.01 µM) .
Data returned: 0.568

Data request: Give the measured relative viability of O=c1[nH]c2ccccc2n1C1CCN(CCCC(c2ccc(F)cc2)c2ccc(F)cc2)CC1 [Pimozide] + N=C(N)NC(=N)NCCc1ccccc1 [Phenformin] (partner 250 µM) .
Data returned: 0.423
